Measured On: T1, human α-CGRP (Homo sapiens, UniProt P06881)
T1 construct: 1-37 (WT); purchased; host or cells: synthetic peptide
T1 sequence (P06881 83-119 limits assumed): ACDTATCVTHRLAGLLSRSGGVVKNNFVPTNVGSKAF
Assay: Biacore affinity of antibody G1 Fab and variants to human α-CGRP
Format: binding
Test Parameters: 37° C., Fab, screening mode unless underlined
Would you kindly list α-human koff for each of these molecules?
Numbers only, in s⁻¹.

Worked cases, answers included:
Molecule: M79: G1 variant: L1 R28N,T30S; L2 G50A,L56T; H2 E54K,A57P; HC-FW3 L99T,A100V (antibody, V domains shown) VH: EVQLVESGGGLVQPGGSLRLSCAASGFTFSNYWISWVRQAPGKGLEWVAEIRSKSDPSATHYAEAVKGRFTISRDNAKNSLYLQMNSLRAEDTAVYYCTVYFDYGLAIQNYWGQGTLVTVSS VL: EIVLTQSPATLSLSPGERATLSCKASKNVSTYVSWYQQKPGQAPRLLIYAASNRYTGIPARFSGSGSGTDFTLTISSLEPEDFAVYYCSQSYNYPYTFGQGTKLEIK
Measure Unit: s⁻¹
Experimental Result: 0.00129
--
Molecule: M66: G1 variant: L1 R28N,T30G; L2 L56I; H2 E54K,A57E; HC-FW3 L99T,A100V (antibody, V domains shown) VH: EVQLVESGGGLVQPGGSLRLSCAASGFTFSNYWISWVRQAPGKGLEWVAEIRSKSDESATHYAEAVKGRFTISRDNAKNSLYLQMNSLRAEDTAVYYCTVYFDYGLAIQNYWGQGTLVTVSS VL: EIVLTQSPATLSLSPGERATLSCKASKNVGTYVSWYQQKPGQAPRLLIYGASNRYIGIPARFSGSGSGTDFTLTISSLEPEDFAVYYCSQSYNYPYTFGQGTKLEIK
Measure Unit: s⁻¹
Experimental Result: 0.00052
--
Molecule: M84: G1 variant: L1 R28N,T30V; L2 A51H,L56T; H2 E54N,A57N; HC-FW3 L991 (printed),A100V (antibody, V domains shown) VH: EVQLVESGGGLVQPGGSLRLSCAASGFTFSNYWISWVRQAPGKGLEWVAEIRSNSDNSATHYAEAVKGRFTISRDNAKNSLYLQMNSLRAEDTAVYYCTVYFDYGLAIQNYWGQGTLVTVSS VL: EIVLTQSPATLSLSPGERATLSCKASKNVVTYVSWYQQKPGQAPRLLIYGHSNRYTGIPARFSGSGSGTDFTLTISSLEPEDFAVYYCSQSYNYPYTFGQGTKLEIK
Measure Unit: s⁻¹
Experimental Result: 0.00108

For each of the molecules below, state α-human koff.
1. M20: G1 variant: L1 R28W; HC-FW3 L99R,A100L (antibody, V domains shown) VH: EVQLVESGGGLVQPGGSLRLSCAASGFTFSNYWISWVRQAPGKGLEWVAEIRSESDASATHYAEAVKGRFTISRDNAKNSLYLQMNSLRAEDTAVYYCRLYFDYGLAIQNYWGQGTLVTVSS VL: EIVLTQSPATLSLSPGERATLSCKASKWVTTYVSWYQQKPGQAPRLLIYGASNRYLGIPARFSGSGSGTDFTLTISSLEPEDFAVYYCSQSYNYPYTFGQGTKLEIK
2. M26: G1 variant: L1 R28N; H2 A57G; HC-FW3 L99T,A100V (antibody, V domains shown) VH: EVQLVESGGGLVQPGGSLRLSCAASGFTFSNYWISWVRQAPGKGLEWVAEIRSESDGSATHYAEAVKGRFTISRDNAKNSLYLQMNSLRAEDTAVYYCTVYFDYGLAIQNYWGQGTLVTVSS VL: EIVLTQSPATLSLSPGERATLSCKASKNVTTYVSWYQQKPGQAPRLLIYGASNRYLGIPARFSGSGSGTDFTLTISSLEPEDFAVYYCSQSYNYPYTFGQGTKLEIK
3. M73: G1 variant: L1 R28N,T30G; L2 L56S; H2 E54K,A57N,S58Y,E64D; HC-FW3 L99T,A100V (antibody, V domains shown) VH: EVQLVESGGGLVQPGGSLRLSCAASGFTFSNYWISWVRQAPGKGLEWVAEIRSKSDNYATHYADAVKGRFTISRDNAKNSLYLQMNSLRAEDTAVYYCTVYFDYGLAIQNYWGQGTLVTVSS VL: EIVLTQSPATLSLSPGERATLSCKASKNVGTYVSWYQQKPGQAPRLLIYGASNRYSGIPARFSGSGSGTDFTLTISSLEPEDFAVYYCSQSYNYPYTFGQGTKLEIK
4. M32: G1 variant: L1 R28N,T30G; H2 E54K,A57H; HC-FW3 L99T,A100V (antibody, V domains shown) VH: EVQLVESGGGLVQPGGSLRLSCAASGFTFSNYWISWVRQAPGKGLEWVAEIRSKSDHSATHYAEAVKGRFTISRDNAKNSLYLQMNSLRAEDTAVYYCTVYFDYGLAIQNYWGQGTLVTVSS VL: EIVLTQSPATLSLSPGERATLSCKASKNVGTYVSWYQQKPGQAPRLLIYGASNRYLGIPARFSGSGSGTDFTLTISSLEPEDFAVYYCSQSYNYPYTFGQGTKLEIK
5. M63: G1 variant: L1 R28N,T30G; L2 G50A; H2 E54K,A57N,S58T; HC-FW3 L99T,A100V (antibody, V domains shown) VH: EVQLVESGGGLVQPGGSLRLSCAASGFTFSNYWISWVRQAPGKGLEWVAEIRSKSDNTATHYAEAVKGRFTISRDNAKNSLYLQMNSLRAEDTAVYYCTVYFDYGLAIQNYWGQGTLVTVSS VL: EIVLTQSPATLSLSPGERATLSCKASKNVGTYVSWYQQKPGQAPRLLIYAASNRYLGIPARFSGSGSGTDFTLTISSLEPEDFAVYYCSQSYNYPYTFGQGTKLEIK

Result:
1: 0.000136; 2: 0.000148; 3: 0.000255; 4: 0.000271; 5: 0.0015
